Target: T1, human CD33 (human, UniProt P20138 18-259, limits assumed)
T1 construct: Human CD33 immobilized on the BLI sensor tip or the BIAcore C1 chip; also called Siglec-3
T1 sequence (P20138 18-259 limits assumed): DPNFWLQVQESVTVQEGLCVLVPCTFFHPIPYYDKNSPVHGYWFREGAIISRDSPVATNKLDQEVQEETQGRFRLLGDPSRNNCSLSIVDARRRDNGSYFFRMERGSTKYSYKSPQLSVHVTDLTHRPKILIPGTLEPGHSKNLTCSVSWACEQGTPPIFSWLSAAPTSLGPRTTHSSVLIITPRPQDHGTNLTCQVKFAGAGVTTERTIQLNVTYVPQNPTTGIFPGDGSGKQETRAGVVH
Assay: SPR (BIAcore), Fab over CD33 on C1 chip
Each entry below carries its recorded Kd.
Response body: numeric value in pM, unit text excluded.

| BINDER | Kd [pM] |
| --- | --- |
| AB-64.1 (antibody, V domains shown) VH: QVQLVQSGAEVKKPGASVKISCKASGYTFTDYNLHWVRQAPGQGLEWIGFIYPSNGITGYAQKFQGRATLTVDNSTSTAYMELSSLRSEDTAVYYCARSDVDYFDYWGQGTLLTVSS VL: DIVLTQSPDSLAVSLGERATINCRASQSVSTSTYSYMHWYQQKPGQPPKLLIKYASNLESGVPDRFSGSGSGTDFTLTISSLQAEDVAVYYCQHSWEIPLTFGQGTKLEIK | 105 |
| AB-64.7 (antibody, V domains shown) VH: QVQLVQSGAEVKKPGASVKISCKASGYTFTDYNYHWVRQAPGQGLEWIGFIYPSNGITGYAQKFQGRATLTVDNSTSTAYMELSSLRSEDTAVYYCARSDVDYFDYWGQGTLLTVSS VL: DIVLTQSPDSLAVSLGERATINCRASQSVGTSTYSYMHWYQQKPGQPPKLLIKYASNLNSGVPDRFSGSGSGTDFTLTISSLQAEDVAVYYCQHSEEIPLTFGQGTKLEIK | 9.97 |

Now turn to the next binder.
For the binder AB-64.8 (antibody, V domains shown) VH: QVQLVQSGAEVKKPGASVKISCKASGYTFTDYNYHWVRQAPGQGLEWIGFIYPSNGITGYAQKFQHRATLTVDNSTSTAYMELSSLRSEDTAVYYCARSDVDYFDYWGQGTLLTVSS VL: DIVLTQSPDSLAVSLGERATINCRASQDVSTSTYSYMHWYQQKPGQPPKLLIKYASNLESGVPDRFSGSGSGTDFTLTISSLQAEDVAVYYCQHSWEIPLTFGQGTKLEIK , what Kd is on record?
6.71

Origin of measurements: patent US20210139581A1
